# credit: paper PMC5320943

tgt: T1, wild-type intermedilysin (ILY^wt) (Streptococcus intermedius, UniProt Q9LCB8 34-532)
T1 sequence: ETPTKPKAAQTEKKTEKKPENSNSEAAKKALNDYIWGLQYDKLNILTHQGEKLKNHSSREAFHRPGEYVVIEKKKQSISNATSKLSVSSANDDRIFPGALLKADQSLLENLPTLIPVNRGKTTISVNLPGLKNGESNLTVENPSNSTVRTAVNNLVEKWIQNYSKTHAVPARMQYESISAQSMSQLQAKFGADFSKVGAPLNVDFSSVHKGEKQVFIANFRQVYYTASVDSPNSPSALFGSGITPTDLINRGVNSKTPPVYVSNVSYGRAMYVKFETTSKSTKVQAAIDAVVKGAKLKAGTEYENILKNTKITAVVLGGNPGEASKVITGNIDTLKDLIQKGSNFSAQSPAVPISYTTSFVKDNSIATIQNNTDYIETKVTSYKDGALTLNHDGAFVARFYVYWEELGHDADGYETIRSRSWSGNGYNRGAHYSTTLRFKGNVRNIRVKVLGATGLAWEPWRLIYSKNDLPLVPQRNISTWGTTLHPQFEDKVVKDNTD
experimental.protocol: MST
property.name: Kd (nM)
State the answer as a number, implicitly in nM.

Tell us which Kd value is on record for CD59 mutant D22A (CD59^D22A) (receptor, human, Dylight 650 label (in the microscale thermophoresis only)) LQCYNCPNPTADCKTAVNCSSAFDACLITKAGLQVYNKCWKFEHCNFNDVTTRLRENELTYYCCKKDLCNFNEQLEN
367
